Below, each of the compounds is paired with its reported solubility kinetic value.
SETUP CONDITIONS: buffer; pH 7.4; 200.0 µM

- COMPOUND: "OC[C@@H](O)C1OC2NC(=S)OC2C1O (stereo not given in full)"
  solubility kinetic: "> 33.2 µg/mL"
- COMPOUND: "Nc1c(N=O)c(=O)[nH]c(=O)n1-c1ccccc1"
  solubility kinetic: "> 34.8 µg/mL"
- COMPOUND: "Cc1cccc(C(=O)NC2CC3CCC(C2)N3C)c1 (stereo not given)"
  solubility kinetic: "> 38.8 µg/mL"
- COMPOUND: "C=CCNC(=O)COc1ccccc1C#N"
  solubility kinetic: "> 32.4 µg/mL"
- COMPOUND: "O=C(NN1CCOCC1)c1cccc(F)c1"
  solubility kinetic: "> 33.6 µg/mL"

---

SETUP CONDITIONS: buffer; pH 7.4; 200.0 µM
Below, each of the molecules is paired with its reported log10(solubility kinetic) value.
MEASURE: log10(solubility kinetic) (log10 of the value in µg/mL)

- MOLECULE: "Cc1ccc(CNC(=O)C2COc3ccccc3O2)cc1 (stereo unspecified)"
  MEASURE: "log10(solubility kinetic)"
  READOUT VALUE: 1.30
- MOLECULE: "O=[N+]([O-])c1ccc(Cl)c2cccnc12"
  MEASURE: "log10(solubility kinetic)"
  READOUT VALUE: 1.39
- MOLECULE: "O=C(CN1CCN(c2ccccn2)CC1)Nc1cccc(F)c1"
  MEASURE: "log10(solubility kinetic)"
  READOUT VALUE: 1.30
- MOLECULE: "O=S(=O)(c1ccc(Cl)cc1)N1CCCc2ccccc21"
  MEASURE: "log10(solubility kinetic)"
  READOUT VALUE: 0.57
- MOLECULE: "CC1CCCN(c2c([N+](=O)[O-])cc(C(=O)O)cc2[N+](=O)[O-])C1 (stereo unspecified)"
  MEASURE: "log10(solubility kinetic)"
  READOUT VALUE: 1.66
- MOLECULE: "O=C(CSc1ncccc1C(=O)O)NC1CCCCCCC1"
  MEASURE: "log10(solubility kinetic)"
  READOUT VALUE: 1.67
- MOLECULE: "O=C(CCNC(=O)c1ccco1)Nc1nc2ccccc2s1"
  MEASURE: "log10(solubility kinetic)"
  READOUT VALUE: 0.65
- MOLECULE: "CNC(=O)COC(=O)c1c2c(nc3ccccc13)CCC2"
  MEASURE: "log10(solubility kinetic)"
  READOUT VALUE: 1.59
- MOLECULE: "Cc1nc([N+](=O)[O-])cn1CC(O)c1ccc(-c2ccccc2)cc1 (stereo unspecified)"
  MEASURE: "log10(solubility kinetic)"
  READOUT VALUE: 1.23
- MOLECULE: "C=CCOC(=O)C1=C(C)NC(=O)NC1c1ccc(N(C)C)cc1 (stereo unspecified)"
  MEASURE: "log10(solubility kinetic)"
  READOUT VALUE: 0.76
- MOLECULE: "O=C1Nc2ccc3sc4ccccc4c3c2C1=O"
  MEASURE: "log10(solubility kinetic)"
  READOUT VALUE: -0.22
- MOLECULE: "NC(=O)C1CCN(CC(O)CSc2ccc(F)cc2)CC1 (stereo unspecified)"
  MEASURE: "log10(solubility kinetic)"
  READOUT VALUE: 1.57

---

Below, each of the compounds is paired with its reported solubility kinetic value.
SETUP CONDITIONS: buffer; pH 7.4; 200.0 µM
MEASURE: solubility kinetic

- STRUCTURE AS SMILES: "Cc1ccc2c(c1)C1(OCCCO1)C(=O)N2"
  MEASURE: "solubility kinetic"
  READOUT VALUE: "> 32.9 µg/mL"
- STRUCTURE AS SMILES: "O=C(COC(=O)c1nsc(Cl)c1Cl)NC1CCCCC1"
  MEASURE: "solubility kinetic"
  READOUT VALUE: "> 50.6 µg/mL"
- STRUCTURE AS SMILES: "CC/C(=N\\N1CCCCC1)c1c(O)[nH]c(=O)[nH]c1=O"
  MEASURE: "solubility kinetic"
  READOUT VALUE: "> 39.9 µg/mL"
- STRUCTURE AS SMILES: "CCC(=O)c1cn(CC(=O)Nc2ccc(C)cc2C)c2ccccc12"
  MEASURE: "solubility kinetic"
  READOUT VALUE: "< 0.4 µg/mL"
- STRUCTURE AS SMILES: "O=C(NC(=S)NNC(=O)c1ccco1)c1ccccc1"
  MEASURE: "solubility kinetic"
  READOUT VALUE: "> 43.4 µg/mL"
- STRUCTURE AS SMILES: "O=C(O)C1CCN(S(=O)(=O)c2ccc3c(c2)OCCCO3)CC1"
  MEASURE: "solubility kinetic"
  READOUT VALUE: "> 51.2 µg/mL"
- STRUCTURE AS SMILES: "COc1cc2c(cc1OC)CN(C(=O)c1ccco1)CC2"
  MEASURE: "solubility kinetic"
  READOUT VALUE: "> 43.1 µg/mL"
- STRUCTURE AS SMILES: "CCN(CC)C(=O)c1ccc(O)c(OC)c1"
  MEASURE: "solubility kinetic"
  READOUT VALUE: "> 33.5 µg/mL"
- STRUCTURE AS SMILES: "Cc1ccc(S(=O)(=O)NC(=O)C2CCCCC2)cc1"
  MEASURE: "solubility kinetic"
  READOUT VALUE: "> 42.2 µg/mL"
- STRUCTURE AS SMILES: "CC(=O)c1cc2c(cc1NS(=O)(=O)c1ccc(F)cc1)OCO2"
  MEASURE: "solubility kinetic"
  READOUT VALUE: "< 0.7 µg/mL"
- STRUCTURE AS SMILES: "CC(C)CNC(=O)COC(=O)C1c2ccccc2Oc2ccccc21"
  MEASURE: "solubility kinetic"
  READOUT VALUE: "41.4 µg/mL"
- STRUCTURE AS SMILES: "Cc1nnc(NC(=O)c2ccc(Br)o2)s1"
  MEASURE: "solubility kinetic"
  READOUT VALUE: "> 43.2 µg/mL"
- STRUCTURE AS SMILES: "O=C(CCS(=O)(=O)c1ccccc1)N1CCOCC1"
  MEASURE: "solubility kinetic"
  READOUT VALUE: "> 42.5 µg/mL"
- STRUCTURE AS SMILES: "Cc1cc(=O)[nH]c(SCc2ccc(Cl)cc2)n1"
  MEASURE: "solubility kinetic"
  READOUT VALUE: "13.2 µg/mL"
- STRUCTURE AS SMILES: "O=[N+]([O-])c1cccc(CN2CCN(c3cccc4[nH]ccc34)CC2)c1"
  MEASURE: "solubility kinetic"
  READOUT VALUE: "44 µg/mL"
- STRUCTURE AS SMILES: "Cc1ccc(C(=O)NCc2nc3ccccc3[nH]2)o1"
  MEASURE: "solubility kinetic"
  READOUT VALUE: "> 38.3 µg/mL"
- STRUCTURE AS SMILES: "O=C(O)C(=O)O.O=[N+]([O-])c1ccccc1CNCCc1c[nH]c2ccccc12"
  MEASURE: "solubility kinetic"
  READOUT VALUE: "41.8 µg/mL"
- STRUCTURE AS SMILES: "Cc1nc(Nc2ccc3c(c2)OCCO3)c2c(C)c(C)sc2n1"
  MEASURE: "solubility kinetic"
  READOUT VALUE: "3.6 µg/mL"
- STRUCTURE AS SMILES: "CC(=O)Nc1cccc(NC(=O)COc2ccccc2C)c1"
  MEASURE: "solubility kinetic"
  READOUT VALUE: "> 44.8 µg/mL"
- STRUCTURE AS SMILES: "COc1ccc(OCC(=O)Nc2ccc3c(c2)OCO3)cc1"
  MEASURE: "solubility kinetic"
  READOUT VALUE: "42.3 µg/mL"
- STRUCTURE AS SMILES: "Nc1ccccc1C(=O)NCc1ccco1"
  MEASURE: "solubility kinetic"
  READOUT VALUE: "> 32.4 µg/mL"
- STRUCTURE AS SMILES: "Cc1cccc(C)c1CC(=O)N1CCOCC1"
  MEASURE: "solubility kinetic"
  READOUT VALUE: "34.6 µg/mL"

---

SETUP CONDITIONS: buffer; pH 7.4; 200.0 µM
Assign class by solubility kinetic: not lower than 20 µg/mL means t; lower than 20 µg/mL means f.

- COMPOUND: "CCOc1ccc(Br)cc1CN(CC)CC.Cl"
  CLASSIFICATION: "t"
- COMPOUND: "CNC(=S)N1CCc2sccc2C1C (stereo not given)"
  CLASSIFICATION: "t"
- COMPOUND: "CNC(=O)CN1C(=O)NC(c2ccccc2)(c2ccccc2)C1=O"
  CLASSIFICATION: "t"
- COMPOUND: "O=C(Nc1ncccn1)c1ccc([N+](=O)[O-])cc1"
  CLASSIFICATION: "t"
- COMPOUND: "CC(=O)N(C)c1ccc(C(O)(C(F)(F)F)C(F)(F)F)cc1"
  CLASSIFICATION: "t"
- COMPOUND: "Cc1ccc(C(=O)C2CCN(S(=O)(=O)c3c(C)noc3C)CC2)cc1"
  CLASSIFICATION: "f"
- COMPOUND: "COc1ccc(-c2csc3nc[nH]c(=O)c23)cc1OC"
  CLASSIFICATION: "t"
- COMPOUND: "CC(C)(C)c1ccc(C(=O)NCCOc2ccccc2)cc1"
  CLASSIFICATION: "f"
- COMPOUND: "O=C(Nc1cc2c3c(c1)CC(=O)N3CCC2)c1ccco1"
  CLASSIFICATION: "t"
- COMPOUND: "OC1CSc2nc3ccccc3n2C1 (stereo not given)"
  CLASSIFICATION: "t"
- COMPOUND: "CC(=O)Oc1ccc(C(c2ccc(OC(C)=O)cc2)c2ccccn2)cc1"
  CLASSIFICATION: "t"
- COMPOUND: "CN1CCN(c2nc3ccccc3nc2NS(=O)(=O)c2ccc(Br)cc2)CC1"
  CLASSIFICATION: "t"
- COMPOUND: "O=C1C(Cl)=CC(=Nc2ccc([O-])cc2)C=C1Cl.[Na+]"
  CLASSIFICATION: "t"
- COMPOUND: "Cn1c(NNC(=O)c2ccccc2F)cc(=O)n(C)c1=O"
  CLASSIFICATION: "t"
- COMPOUND: "Cc1c([N+](=O)[O-])cc(C(=O)Nc2ccc3ncccc3c2)cc1[N+](=O)[O-]"
  CLASSIFICATION: "f"
- COMPOUND: "CC(Sc1nncs1)C(=O)Nc1ccc(S(=O)(=O)Nc2ncccn2)cc1 (stereo not given)"
  CLASSIFICATION: "t"
- COMPOUND: "CCC(C)(CCNC(=O)Cc1ccccc1)c1ccccc1OC (stereo not given)"
  CLASSIFICATION: "f"
- COMPOUND: "COc1ccc(NC(=O)c2cccnc2)cc1OCC(C)C"
  CLASSIFICATION: "t"
- COMPOUND: "CCOc1ccc(N2C(=O)Cc3ccccc3C2=O)cc1"
  CLASSIFICATION: "t"
